Tested on: MDR
Assay: Cytotoxicity against MDR human KBChR cells
Format: functional, cell-based
Lab note: compare IC10 with 1000 nM, writing label 1 if less and label 0 if equal or more.

[
  {
    "LINE_NOTATION": "O=c1c2ccccc2n(CCCN2CCN(CCO)CC2)c2ccc(Cl)cc12",
    "ASSIGNED_LABEL": "label 1"
  },
  {
    "LINE_NOTATION": "O=c1c2ccccc2n(CCCCl)c2ccc(Cl)cc12",
    "ASSIGNED_LABEL": "label 0"
  },
  {
    "LINE_NOTATION": "O=c1c2ccccc2n(CCCN2CCCCC2)c2ccc(Cl)cc12",
    "ASSIGNED_LABEL": "label 0"
  },
  {
    "LINE_NOTATION": "CCN(CC)CCCCn1c2ccccc2c(=O)c2cc(Cl)ccc21",
    "ASSIGNED_LABEL": "label 1"
  },
  {
    "LINE_NOTATION": "O=c1c2ccccc2n(CCCCN(CCO)CCO)c2ccc(Cl)cc12",
    "ASSIGNED_LABEL": "label 1"
  },
  {
    "LINE_NOTATION": "O=c1c2ccccc2[nH]c2ccc(Cl)cc12",
    "ASSIGNED_LABEL": "label 0"
  },
  {
    "LINE_NOTATION": "CN1CCN(CCCCn2c3ccccc3c(=O)c3cc(Cl)ccc32)CC1",
    "ASSIGNED_LABEL": "label 1"
  },
  {
    "LINE_NOTATION": "O=c1c2ccccc2n(CCCN2CCCC2)c2ccc(Cl)cc12",
    "ASSIGNED_LABEL": "label 1"
  },
  {
    "LINE_NOTATION": "O=c1c2ccccc2n(CCCCN2CCCCC2)c2ccc(Cl)cc12",
    "ASSIGNED_LABEL": "label 1"
  },
  {
    "LINE_NOTATION": "O=c1c2ccccc2n(CCCCCl)c2ccc(Cl)cc12",
    "ASSIGNED_LABEL": "label 0"
  },
  {
    "LINE_NOTATION": "O=c1c2ccccc2n(CCCN2CCOCC2)c2ccc(Cl)cc12",
    "ASSIGNED_LABEL": "label 0"
  }
]

====

System: MDR
Assay: Cytotoxicity against MDR human KBChR cells
Format: functional, cell-based
Recorded IC10 by entry

[
  {
    "LINE_NOTATION": "O=c1c2ccccc2n(CCCCN2CCOCC2)c2ccc(Cl)cc12",
    "SCALE_UNIT": "nM",
    "IC10": 720
  },
  {
    "LINE_NOTATION": "O=c1c2ccccc2n(CCCCN2CCCC2)c2ccc(Cl)cc12",
    "SCALE_UNIT": "nM",
    "IC10": 1850
  },
  {
    "LINE_NOTATION": "CCN(CC)CCCn1c2ccccc2c(=O)c2cc(Cl)ccc21",
    "SCALE_UNIT": "nM",
    "IC10": 1000
  },
  {
    "LINE_NOTATION": "O=c1c2ccccc2n(CCCCN2CCN(CCO)CC2)c2ccc(Cl)cc12",
    "SCALE_UNIT": "nM",
    "IC10": 460
  },
  {
    "LINE_NOTATION": "O=c1c2ccccc2n(CCCN(CCO)CCO)c2ccc(Cl)cc12",
    "SCALE_UNIT": "nM",
    "IC10": 1200
  },
  {
    "LINE_NOTATION": "CN1CCN(CCCn2c3ccccc3c(=O)c3cc(Cl)ccc32)CC1",
    "SCALE_UNIT": "nM",
    "IC10": 800
  }
]
